- Target Or Test System: recombinant human TFPI (tissue factor pathway inhibitor) (human, UniProt P10646 29-304)
- Experiment Description: cell-based or functional assay
Outcome Measure: FXa assay OD, 5 nM Ab, 10 nM TFPI
Could you keep your reply to the number by itself?

## Input Kindly indicate its recorded FXa assay OD, 5 nM Ab, 10 nM TFPI. Item: clone 3203 (antibody, V domains shown) VH: EVQLVESGGGLVKPGGSLRLSCAASGFTFSSYAMSWVRQAPGKGLEWVSTITTGGSYTYYADSVEGRFTISRDNAKNSLYLQMNSLRAEDTAVYYCARQDGNFLMDYWGQGTLVTVSS VL: DVVMTQTPLSLPVTLGQPASISCKSSQSLLDLDGKTYLNWLQQRPGQSPKRLIYLVSKLDSGVPDRFTGSGSGTDFTLKISRVEAEDVGVYYCWQGTHFPFTFGQGTKVEIKR
## Output 0.11
